# assay-comment: Stability of bile salts in aqueous solution
# run-conditions: pH 6.5, 25° C., 1% in 10 mM phosphate buffer
metric: Solution stability of bile salt

>>> print(df.to_string())
                                   compound                           metric  recorded_result
0  C[C@H](CCC(=O)O)[C@H]1CC[C@H]2[C@@H]3[C@H](O)C[C@@H]4C[C@H](O)CC[C@]4(C)[C@H]3C[C@H](O)[C@]12C [CA, cholate]  Solution stability of bile salt    Precipitation
1  C[C@H](CCC(=O)O)[C@H]1CC[C@H]2[C@@H]3[C@@H](O)C[C@@H]4C[C@H](O)CC[C@]4(C)[C@H]3CC[C@]12C [UDCA, ursodeoxycholate]  Solution stability of bile salt    Precipitation

====

# assay-comment: Stability of bile salts in aqueous solution
# run-conditions: summary, Table 4
metric: pH stability

In [3]: df
Out[3]:
                                   compound  recorded_result
0  C[C@H](CCC(=O)O)[C@H]1CC[C@H]2[C@@H]3[C@H](O)C[C@@H]4C[C@H](O)CC[C@]4(C)[C@H]3C[C@H](O)[C@]12C [CA, cholate]             <7.0
1  C[C@H](CCC(=O)O)[C@H]1CC[C@H]2[C@@H]3C[C@H](O)[C@@H]4C[C@H](O)CC[C@]4(C)[C@H]3CC[C@]12C [HDCA, hyodeoxycholate]             <7.4
2  C[C@H](CCC(=O)O)[C@H]1CC[C@H]2[C@@H]3[C@@H](O)C[C@@H]4C[C@H](O)CC[C@]4(C)[C@H]3CC[C@]12C [UDCA, ursodeoxycholate]             <7.8
3  C[C@H](CCC(=O)O)[C@H]1CC[C@H]2[C@@H]3[C@H](O)C[C@@H]4C[C@H](O)CC[C@]4(C)[C@H]3CC[C@]12C [CDCA, chenodeoxycholate]             <7.4

====

# assay-comment: Stability of bile salts in aqueous solution
# run-conditions: pH 7.6, 25° C., 1% in 10 mM phosphate buffer
metric: Solution stability of bile salt

>>> print(df.to_string())
                                   compound                           metric  recorded_result
0  C[C@H](CCC(=O)O)[C@H]1CC[C@H]2[C@@H]3[C@H](O)C[C@@H]4C[C@H](O)CC[C@]4(C)[C@H]3CC[C@]12C [CDCA, chenodeoxycholate]  Solution stability of bile salt           Stable
1  C[C@H](CCC(=O)O)[C@H]1CC[C@H]2[C@@H]3[C@H](O)C[C@@H]4C[C@H](O)CC[C@]4(C)[C@H]3C[C@H](O)[C@]12C [CA, cholate]  Solution stability of bile salt           Stable
2  C[C@H](CCC(=O)O)[C@H]1CC[C@H]2[C@@H]3C[C@H](O)[C@@H]4C[C@H](O)CC[C@]4(C)[C@H]3CC[C@]12C [HDCA, hyodeoxycholate]  Solution stability of bile salt           Stable

====

# assay-comment: Stability of bile salts in aqueous solution
# run-conditions: pH 7.2, 25° C., 1% in 10 mM phosphate buffer
metric: Solution stability of bile salt

In [3]: df
Out[3]:
                                   molecule                           metric  recorded_result
0  C[C@H](CCC(=O)O)[C@H]1CC[C@H]2[C@@H]3[C@@H](O)C[C@@H]4C[C@H](O)CC[C@]4(C)[C@H]3CC[C@]12C [UDCA, ursodeoxycholate]  Solution stability of bile salt    Precipitation
1  C[C@H](CCC(=O)O)[C@H]1CC[C@H]2[C@@H]3[C@H](O)C[C@@H]4C[C@H](O)CC[C@]4(C)[C@H]3CC[C@]12C [CDCA, chenodeoxycholate]  Solution stability of bile salt    Precipitation

====

# assay-comment: Stability of bile salts in aqueous solution
# run-conditions: pH 7.0, 25° C., 1% in 10 mM phosphate buffer
metric: Solution stability of bile salt

>>> df
                                   compound  recorded_result
0  C[C@H](CCC(=O)O)[C@H]1CC[C@H]2[C@@H]3C[C@H](O)[C@@H]4C[C@H](O)CC[C@]4(C)[C@H]3CC[C@]12C [HDCA, hyodeoxycholate]         Gelation
1  C[C@H](CCC(=O)O)[C@H]1CC[C@H]2[C@@H]3[C@H](O)C[C@@H]4C[C@H](O)CC[C@]4(C)[C@H]3CC[C@]12C [CDCA, chenodeoxycholate]         Gelation

====

# assay-comment: Stability of bile salts in aqueous solution
# run-conditions: pH 6.7, 25° C., 1% in 10 mM phosphate buffer
metric: Solution stability of bile salt

In [3]: df
Out[3]:
                                   compound                           metric  recorded_result
0  C[C@H](CCC(=O)O)[C@H]1CC[C@H]2[C@@H]3C[C@H](O)[C@@H]4C[C@H](O)CC[C@]4(C)[C@H]3CC[C@]12C [HDCA, hyodeoxycholate]  Solution stability of bile salt         Gelation
1  C[C@H](CCC(=O)O)[C@H]1CC[C@H]2[C@@H]3[C@H](O)C[C@@H]4C[C@H](O)CC[C@]4(C)[C@H]3CC[C@]12C [CDCA, chenodeoxycholate]  Solution stability of bile salt         Gelation
2  C[C@H](CCC(=O)O)[C@H]1CC[C@H]2[C@@H]3[C@H](O)C[C@@H]4C[C@H](O)CC[C@]4(C)[C@H]3C[C@H](O)[C@]12C [CA, cholate]  Solution stability of bile salt    Precipitation
3  C[C@H](CCC(=O)O)[C@H]1CC[C@H]2[C@@H]3[C@@H](O)C[C@@H]4C[C@H](O)CC[C@]4(C)[C@H]3CC[C@]12C [UDCA, ursodeoxycholate]  Solution stability of bile salt    Precipitation

====

# assay-comment: Stability of bile salts in aqueous solution
# run-conditions: pH 7.4, 25° C., 1% in 10 mM phosphate buffer
metric: Solution stability of bile salt

>>> print(df.to_string())
                                   molecule  recorded_result
0  C[C@H](CCC(=O)O)[C@H]1CC[C@H]2[C@@H]3[C@H](O)C[C@@H]4C[C@H](O)CC[C@]4(C)[C@H]3CC[C@]12C [CDCA, chenodeoxycholate]           Stable
1  C[C@H](CCC(=O)O)[C@H]1CC[C@H]2[C@@H]3[C@H](O)C[C@@H]4C[C@H](O)CC[C@]4(C)[C@H]3C[C@H](O)[C@]12C [CA, cholate]           Stable
2  C[C@H](CCC(=O)O)[C@H]1CC[C@H]2[C@@H]3C[C@H](O)[C@@H]4C[C@H](O)CC[C@]4(C)[C@H]3CC[C@]12C [HDCA, hyodeoxycholate]           Stable
